Data origin: the supplement of paper PMC11246515

# total protein half-life in vivo annotations
assay: total protein half-life in vivo (active degradation + dilution); higher = more stable protein; conditions: E. coli NCM3722 delta-smpB; growth: N-lim chemostat; doubling time 6 h

biopolymer sequence | total protein half-life in vivo, h
MIPFNAPPVVGTELDYMQSAMGSGKLCGDGGFTRRCQQWLEQRFGSAKVLLTPSCTASLEMAALLLDIQPGDEVIMPSYTFVSTANAFVLRGAKIVFVDVRPDTMNIDETLIEAAITDKTRVIVPVHYAGVACEMDTIMALAKKHNLFVVEDAAQGVMSTYKGRALGTIGHIGCFSFHETKNYTAGGEGGATLINDKALIERAEIIREKGTNRSQFFRGQVDKYTWRDIGSSYLMSDLQAAYLWAQLEAADRINQQRLALWQNYYDALAPLAKAGRIELPSIPDGCVQNAHMFYIKLRDIDDRSALINFLKEAEIMAVFHYIPLHGCPAGEHFGEFHGEDRYTTKESERLLRLPLFYNLSPVNQRTVIATLLNYFS | 4.25
MMNPVLWLQMTNMISYQGLVRTFLNKNDLKAFIAFPSSLYPDDPNWIPPLFIERNEHLSAKNPGTDHIIWQAWVAKKAGQIVGRITAQIDTLHRERYGKDTGHFGMIDAIDDPQVFAALFGAAEAWLKSQGASKISGPFSLNINQESGLLIEGFDTPPCAMMPHGKPWYAAHIEQLGYHKGIDLLAWWMQRTDLTFSPALKKLMDQVRKKVTIRCINRQRFAEEMQILREIFNSGWQHNWGFVPFTEHEFATMGDQLKYLVPDDMIYIAEIDSAPCAFIVGLPNINEAIADLNGSLFPFGWAKLLWRLKVSGVRTARVPLMGVRDEYQFSRIGPVIALLLIEALRDPFARRKIDALEMSWILETNTGMNNMLERIGAEPYKRYRLYEKQI | 3.38

====

test: total protein half-life in vivo (active degradation + dilution); higher = more stable protein; conditions: E. coli NCM3722 delta-lon; growth: N-lim chemostat; doubling time 6 h

biopolymer sequence | total protein half-life in vivo
MTKLKLLALGVLIATSAGVAHAEGKFSLGAGVGVVEHPYKDYDTDVYPVPVINYEGDNFWFRGLGGGYYLWNDATDKLSITAYWSPLYFKAKDSGDHQMRHLDDRKSTMMAGLSYAHFTQYGYLRTTLAGDTLDNSNGIVWDMAWLYRYTNGGLTVTPGIGVQWNSENQNEYYYGVSRKESARSGLRGYNPNDSWSPYLELSASYNFLGDWSVYGTARYTRLSDEVTDSPMVDKSWTGLISTGITYKF [P0A908] | 6.05 h
MKILVIGPSWVGDMMMSQSLYRTLQARYPQAIIDVMAPAWCRPLLSRMPEVNEAIPMPLGHGALEIGERRKLGHSLREKRYDRAYVLPNSFKSALVPFFAGIPHRTGWRGEMRYGLLNDVRVLDKEAWPLMVERYIALAYDKGIMRTAQDLPQPLLWPQLQVSEGEKSYTCNQFSLSSERPMIGFCPGAEFGPAKRWPHYHYAELAKQLIDEGYQVVLFGSAKDHEAGNEILAALNTEQQAWCRNLAGETQLDQAVILIAACKAIVTNDSGLMHVAAALNRPLVALYGPSSPDFTPPLSHKARVIRLITGYHKVRKGDAAEGYHQSLIDITPQRVLEELNALLLQEEA | 5.22 h
MVAPIPAKRGRKPAVATAPATGQVQSLTRGLKLLEWIAESNGSVALTELAQQAGLPNSTTHRLLTTMQQQGFVRQVGELGHWAIGAHAFMVGSSFLQSRNLLAIVHPILRNLMEESGETVNMAVLDQSDHEAIIIDQVQCTHLMRMSAPIGGKLPMHASGAGKAFLAQLSEEQVTKLLHRKGLHAYTHATLVSPVHLKEDLAQTRKRGYSFDDEEHALGLRCLAACIFDEHREPFAAISISGPISRITDDRVTEFGAMVIKAAKEVTLAYGGMR | 5.45 h
MTQPVLDIQQLHLSFPGFNGDVHALNNVSLQINRGEIVGLVGESGSGKSVTAMLIMRLLPTGSYCVHRGQISLLGEDVLNAREKQLRQWRGARVAMIFQEPMTALNPTRRIGLQMMDVIRHHQPISRREARAKAIDLLEEMQIPDAVEVMSRYPFELSGGMRQRVMIALAFSCEPQLIIADEPTTALDVTVQLQVLRLLKHKARASGTAVLFISHDMAVVSQLCDSVYVMYAGSVIESGVTADVIHHPRHPYTIGLLQCAPEHGVPRQLLPAIPGTVPNLTHLPDGCAFRDRCYAAGAQCENVPALTACGDNNQRCACWYPQQEVISV | 2.24 h
MKKLVLSLSLVLAFSSATAAFAAIPQNIRIGTDPTYAPFESKNSQGELVGFDIDLAKELCKRINTQCTFVENPLDALIPSLKAKKIDAIMSSLSITEKRQQEIAFTDKLYAADSRLVVAKNSDIQPTVESLKGKRVGVLQGTTQETFGNEHWAPKGIEIVSYQGQDNIYSDLTAGRIDAAFQDEVAASEGFLKQPVGKDYKFGGPSVKDEKLFGVGTGMGLRKEDNELREALNKAFAEMRADGTYEKLAKKYFDFDVYGG [P0AEU0] | 6.35 h
MANNTTGFTRIIKAAGYSWKGLRAAWINEAAFRQEGVAVLLAVVIACWLDVDAITRVLLISSVMLVMIVEILNSAIEAVVDRIGSEYHELSGRAKDMGSAAVLIAIIVAVITWCILLWSHFG [P0ABN1] | 6.03 h
MRIFVYGSLRHKQGNSHWMTNAQLLGDFSIDNYQLYSLGHYPGAVPGNGTVHGEVYRIDNATLAELDALRTRGGEYARQLIQTPYGSAWMYVYQRPVDGLKLIESGDWLDRDK [P0AE48] | 5.34 h
MRYIVALTGGIGSGKSTVANAFADLGINVIDADIIARQVVEPGAPALHAIADHFGANMIAADGTLQRRALRERIFANPEEKNWLNALLHPLIQQETQHQIQQATSPYVLWVVPLLVENSLYKKANRVLVVDVSPETQLKRTMQRDDVTREHVEQILAAQATREARLAVADDVIDNNGAPDAIASDVARLHAHYLQLASQFVSQEKP [P0A6I9] | 4.32 h
MIPEKRIIRRIQSGGCAIHCQDCSISQLCIPFTLNEHELDQLDNIIERKKPIQKGQTLFKAGDELKSLYAIRSGTIKSYTITEQGDEQITGFHLAGDLVGFDAIGSGHHPSFAQALETSMVCEIPFETLDDLSGKMPNLRQQMMRLMSGEIKGDQDMILLLSKKNAEERLAAFIYNLSRRFAQRGFSPREFRLTMTRGDIGNYLGLTVETISRLLGRFQKSGMLAVKGKYITIENNDALAQLAGHTRNVA [P0A9E5] | 1.4 h
MAHIVTLNTPSREDWLTQLADVVTDPDELLRLLNIDAEEKLLAGRSAKKLFALRVPRSFIDRMEKGNPDDPLLRQVLTSQDEFVIAPGFSTDPLEEQHSVVPGLLHKYHNRALLLVKGGCAVNCRYCFRRHFPYAENQGNKRNWQTALEYVAAHPELDEMIFSGGDPLMAKDHELDWLLTQLEAIPHIKRLRIHSRLPIVIPARITEALVECFARSTLQILLVNHINHANEVDETFRQAMAKLRRVGVTLLNQSVLLRDVNDNAQTLANLSNALFDAGVMPYYLHVLDKVQGAAHFMVSDDEARQIMRELLTLVSGYLVPKLAREIGGEPSKTPLDLQLRQQ | 1.61 h
MNEFSILCRVLGSLYYRQPQDPLLVPLFTLIREGKLAANWPLEQDELLTRLQKSCDMTQVSADYNALFIGDECAVPPYRSAWVEGATEAEVRAFLSERGMPLADTPADHIGTLLLAASWLEDQSTEDESEALETLFSEYLLPWCGAFLGKVEAHATTPFWRTMAPLTRDAISAMWDELEEDSEE | 5.97 h

====

assay: total protein half-life in vivo (active degradation + dilution); higher = more stable protein; settings: wild type E. coli NCM3722; growth: C-lim chemostat; doubling time 12 h
property name: total protein half-life in vivo (h)

biopolymer sequence | unit info | quantitative result
MQKQAELYRGKAKTVYSTENPDLLVLEFRNDTSAGDGARIEQFDRKGMVNNKFNYFIMSKLAEAGIPTQMERLLSDTECLVKKLDMVPVECVVRNRAAGSLVKRLGIEEGIELNPPLFDLFLKNDAMHDPMVNESYCETFGWVSKENLARMKELTYKANDVLKKLFDDAGLILVDFKLEFGLYKGEVVLGDEFSPDGSRLWDKETLEKMDKDRFRQSLGGLIEAYEAVARRLGVQLD [P0A7D7] | h | 10.8
MTLKELLVGFGTQVRSIWMIGLHAFAKRETRMYPEEPVYLPPRYRGRIVLTRDPDGEERCVACNLCAVACPVGCISLQKAETKDGRWYPEFFRINFSRCIFCGLCEEACPTTAIQLTPDFEMGEYKRQDLVYEKEDLLISGPGKYPEYNFYRMAGMAIDGKDKGEAENEAKPIDVKSLLP [P0AFD6] | h | 12
MRRFFWLVAAALLLAGCAGEKGIVEKEGYQLDTRRQAQAAYPRIKVLVIHYTADDFDSSLATLTDKQVSSHYLVPAVPPRYNGKPRIWQLVPEQELAWHAGISAWRGATRLNDTSIGIELENRGWQKSAGVKYFAPFEPAQIQALIPLAKDIIARYHIKPENVVAHADIAPQRKDDPGPLFPWQQLAQQGIGAWPDAQRVNFYLAGRAPHTPVDTASLLELLARYGYDVKPDMTPREQRRVIMAFQMHFRPTLYNGEADAETQAIAEALLEKYGQD | h | 11.2
